// data source = patent US20160368879A1

# test-details: Solvent solubility (butyl acetate, toluene or PGMEA)
# Type: physicochemical
# experimental-conditions: butyl acetate, 25° C.
metric: Solvent solubility Butyl acetate (wt %)

These solved cases illustrate the format of a correct answer.
compound	metric	quantitative-readout
O=C1c2cccc3c(C(F)(F)C(F)(F)C(F)(F)C(F)(F)F)ccc(c23)C(=O)N1OS(=O)(=O)c1c(F)c(F)c(F)c(F)c1F	Solvent solubility Butyl acetate	14
O=C(Oc1cc2c3c(cccc3c1)C(=O)N(OS(=O)(=O)c1c(F)c(F)c(F)c(F)c1F)C2=O)c1c(F)c(F)c(F)c(F)c1F	Solvent solubility Butyl acetate	24
CC1(C)C2CC[C@@]1(CS(=O)(=O)ON1C(=O)c3cc(C45CC6CC(CC(C6)C4)C5)cc4cc(C56CC7CC(CC(C7)C5)C6)cc(c34)C1=O)C(=O)C2	Solvent solubility Butyl acetate	2
O=C1c2cccc3c(C(F)(F)C(F)(F)C(F)(F)C(F)(F)C(F)(F)C(F)(F)C(F)(F)C(F)(F)F)ccc(c23)C(=O)N1OS(=O)(=O)c1c(F)c(F)c(F)c(F)c1F	Solvent solubility Butyl acetate	25

(A) CCCCC(CC)C(=O)Oc1cc2c3c(cccc3c1)C(=O)N(OS(=O)(=O)c1c(F)c(F)c(F)c(F)c1F)C2=O (stereo not drawn)
(B) CCCC(=O)Oc1cc2c3c(cccc3c1)C(=O)N(OS(=O)(=O)CC13CCC(CC1=O)C3(C)C)C2=O (stereo not drawn)
(C) CC1(C)C2CC[C@@]1(CS(=O)(=O)ON1C(=O)c3cccc4cc(OC(=O)c5ccccc5)cc(c34)C1=O)C(=O)C2
(D) CC1(C)C2CCC1(CS(=O)(=O)ON1C(=O)c3cccc4c(C(=O)Cc5ccccc5)ccc(c34)C1=O)C(=O)C2 (stereo not drawn)
INPUT: Hey, can you sort those compounds up there by Solvent solubility Butyl acetate, smallest first? The labels, placed in the requested order, form the answer.
OUTPUT: D, C, B, A
(D: 1.4 wt %, C: 6 wt %, B: 9 wt %, A: 25 wt %)

====

# test-details: Molar extinction coefficient of i-line (365 nm), UV-visible absorbance in acetonitrile
# Type: physicochemical
# experimental-conditions: 0.25 mmol/L in acetonitrile, cell length 1 cm
metric: Molar extinction coefficient (L/mol/cm)

These solved cases illustrate the format of a correct answer.
compound	quantitative-readout
CC(C)(C)c1cc2c3c(cc(C(C)(C)C)cc3c1)C(=O)N(OS(=O)(=O)c1c(F)c(F)c(F)c(F)c1F)C2=O	6500
O=C1c2cccc3c(OCC(F)(F)C(F)F)ccc(c23)C(=O)N1OS(=O)(=O)C(F)(F)F	12000
CC(C)Oc1ccc2c3c(cccc13)C(=O)N(OS(=O)(=O)C(F)(F)F)C2=O	16300

(a) CCCOc1ccc2c3c(cccc13)C(=O)N(OS(=O)(=O)c1c(F)c(F)c(F)c(F)c1F)C2=O
(b) CC(C)(C)c1cc2c3c(cc(C(C)(C)C)cc3c1)C(=O)N(OS(=O)(=O)CC13CCC(CC1=O)C3(C)C)C2=O (stereo not shown)
(c) O=C(Cc1ccccc1)c1ccc2c3c(cccc13)C(=O)N(OS(=O)(=O)c1c(F)c(F)c(F)c(F)c1F)C2=O
(d) O=C(Oc1cc2c3c(cccc3c1)C(=O)N(OS(=O)(=O)C(F)(F)F)C2=O)c1ccccc1
INPUT: Hey, can you sort those compounds up there by Molar extinction coefficient, smallest first? The labels, placed in the requested order, form the answer.
OUTPUT: d, c, b, a

====

# test-details: Thermal decomposition temperature (TG/DTA, 2% weight reduction)
# Format: physicochemical
# experimental-conditions: point of 2% weight reduction; 10° C./minute from 30° C. to 500° C.; nitrogen atmosphere
metric: Thermal decomposition temperature (°C)

compound	metric	quantitative-readout
COc1cc2c3c(cccc3c1)C(=O)N(OS(=O)(=O)C(F)(F)F)C2=O	Thermal decomposition temperature	243
CC(C)(C)Cc1cc2c3c(cc(CC(C)(C)C)cc3c1)C(=O)N(OS(=O)(=O)c1c(F)c(F)c(F)c(F)c1F)C2=O	Thermal decomposition temperature	250
CCCCC(CC)C(=O)Oc1cc2c3c(cccc3c1)C(=O)N(OS(=O)(=O)CC13CCC(CC1=O)C3(C)C)C2=O (stereo not drawn)	Thermal decomposition temperature	232
CCCOc1ccc2c3c(cccc13)C(=O)N(OS(=O)(=O)C(F)(F)F)C2=O	Thermal decomposition temperature	238
CC(C)Oc1ccc2c3c(cccc13)C(=O)N(OS(=O)(=O)CC13CCC(CC1=O)C3(C)C)C2=O (stereo not drawn)	Thermal decomposition temperature	239
CC(C)(C)c1cc2c3c(cc(C(C)(C)C)cc3c1)C(=O)N(OS(=O)(=O)C(F)(F)F)C2=O	Thermal decomposition temperature	245
O=C1c2cccc3c(OCC(F)(F)C(F)F)ccc(c23)C(=O)N1OS(=O)(=O)c1c(F)c(F)c(F)c(F)c1F	Thermal decomposition temperature	232
C[Si](C)(C)c1ccc2c3c(cccc13)C(=O)N(OS(=O)(=O)c1c(F)c(F)c(F)c(F)c1F)C2=O	Thermal decomposition temperature	241
O=C1c2cccc3c(Br)ccc(c23)C(=O)N1OS(=O)(=O)C(F)(F)F	Thermal decomposition temperature	230
CC(C)(C)Cc1cc2c3c(cc(CC(C)(C)C)cc3c1)C(=O)N(OS(=O)(=O)C(F)(F)F)C2=O	Thermal decomposition temperature	248
O=C1c2cccc3cccc(c23)C(=O)N1OS(=O)(=O)c1c(F)c(F)c(F)c(F)c1F [A′-3, reference compound]	Thermal decomposition temperature	228
CC1(C)C2CCC1(CS(=O)(=O)ON1C(=O)c3cccc4cccc(c34)C1=O)C(=O)C2 (stereo not drawn) [A′-5, reference compound]	Thermal decomposition temperature	230
O=C1c2cccc3c(Oc4c(F)c(F)c(F)c(F)c4F)ccc(c23)C(=O)N1OS(=O)(=O)C(F)(F)F	Thermal decomposition temperature	245
CC1(C)C2CCC1(CS(=O)(=O)ON1C(=O)c3cccc4c(Cl)ccc(c34)C1=O)C(=O)C2 (stereo not drawn)	Thermal decomposition temperature	228
CC1(C)C2CCC1(CS(=O)(=O)ON1C(=O)c3cccc4c(Br)ccc(c34)C1=O)C(=O)C2 (stereo not drawn)	Thermal decomposition temperature	240

====

# test-details: Molar extinction coefficient of i-line (365 nm), UV-visible absorbance in acetonitrile
# Assay type: physicochemical
# experimental-conditions: 0.25 mmol/L in acetonitrile, cell length 1 cm
metric: Molar extinction coefficient (L/mol/cm)

These solved cases illustrate the format of a correct answer.
compound	Molar extinction coefficient [L/mol/cm]
CC1(C)C2CCC1(CS(=O)(=O)ON1C(=O)c3cccc4c(C(F)(F)C(F)(F)C(F)(F)C(F)(F)F)ccc(c34)C1=O)C(=O)C2 (centres unmarked)	40
CC1(C)C2CC[C@@]1(CS(=O)(=O)ON1C(=O)c3cccc4cc(OC(=O)c5ccccc5)cc(c34)C1=O)C(=O)C2	1400

(A) O=C1c2cccc3c(C(F)(F)C(F)(F)C(F)(F)C(F)(F)C(F)(F)C(F)(F)C(F)(F)C(F)(F)F)ccc(c23)C(=O)N1OS(=O)(=O)c1c(F)c(F)c(F)c(F)c1F
(B) CC(C)Oc1ccc2c3c(cccc13)C(=O)N(OS(=O)(=O)CC13CCC(CC1=O)C3(C)C)C2=O (centres unmarked)
INPUT: Lab notebook, comparison: A versus B , higher Molar extinction coefficient goes to which? Lab log: write the label of the selected item as the result.
OUTPUT: B

(1) O=C1c2cccc3c(Oc4cccc(C(F)(F)F)c4)ccc(c23)C(=O)N1OS(=O)(=O)C(F)(F)F
(2) CC1(C)C2CCC1(CS(=O)(=O)ON1C(=O)c3cccc4c(Cl)ccc(c34)C1=O)C(=O)C2 (centres unmarked)
(3) CC1(C)C2CCC1(CS(=O)(=O)ON1C(=O)c3cccc4cccc(c34)C1=O)C(=O)C2 (centres unmarked) [A′-5, reference compound]
(4) CCCCC(CC)C(=O)Oc1cc2c3c(cccc3c1)C(=O)N(OS(=O)(=O)C(F)(F)F)C2=O (centres unmarked)
INPUT: Hey, can you sort those compounds up there by Molar extinction coefficient, smallest first? The labels, placed in the requested order, form the answer.
OUTPUT: 3, 4, 2, 1
(3: 330 L/mol/cm, 4: 1500 L/mol/cm, 2: 6000 L/mol/cm, 1: 16000 L/mol/cm)

====

# test-details: Solvent solubility (butyl acetate, toluene or PGMEA)
# Assay type: physicochemical
# experimental-conditions: PGMEA, 25° C.
metric: Solvent solubility PGMEA (wt %)

molecule	unit-tag	Solvent solubility PGMEA
C[Si](C)(C)c1ccc2c3c(cccc13)C(=O)N(OS(=O)(=O)C(F)(F)F)C2=O [Example A-18]	wt %	8
CCCC(=O)Oc1cc2c3c(cccc3c1)C(=O)N(OS(=O)(=O)CC13CCC(CC1=O)C3(C)C)C2=O (stereo not shown) [Example A-50]	wt %	7.2
O=C(Cc1ccccc1)c1ccc2c3c(cccc13)C(=O)N(OS(=O)(=O)C(F)(F)F)C2=O [Example A-4]	wt %	4

(I) CC1(C)C2CC[C@@]1(CS(=O)(=O)ON1C(=O)c3cccc4cc(OC(=O)c5c(F)c(F)c(F)c(F)c5F)cc(c34)C1=O)C(=O)C2 [Example A-52]
(II) CC1(C)C2CCC1(CS(=O)(=O)ON1C(=O)c3cccc4c(Oc5c(F)c(F)c(F)c(F)c5F)ccc(c34)C1=O)C(=O)C2 (stereo not shown) [Example A-45]
INPUT: Given the two records I and II , choose the one whose Solvent solubility PGMEA value is lower. Lab log: write the label of the selected item as the result.
OUTPUT: II
